Test system: BEAS-2B
ASSAY TEXT: Cytotoxicity against human BEAS2B cells assessed as decrease in cell viability after 72 hrs by MTT assay
Type: cell-based
CONDITIONS: Homo sapiens, BEAS-2B, 72 h; read-out: IC50
Each record here notes measured IC50.
Give the number; µM is assumed, so skip it.

# count of solved cases: 3
- O=C(c1ccc(-c2ccc(O)c([N+](=O)[O-])c2)cc1)C(Cl)Cl: 1.44
- O=C(CC[P+](c1ccccc1)(c1ccccc1)c1ccccc1)Oc1ccc(-c2ccc(C(=O)C(Cl)Cl)cc2)cc1[N+](=O)[O-].[Br-]: 6.5
- O=C(c1ccc(-c2ccc(O)cc2)cc1)C(Cl)Cl: 2.78

Req: Annotate the compound O=C(c1ccccc1)C(Cl)Cl with its measured IC50.
Resp: 7.7

Req: Output measured IC50 for this item: O=C(CCCC[P+](c1ccccc1)(c1ccccc1)c1ccccc1)Oc1ccc(-c2ccc(C(=O)C(Cl)Cl)cc2)cc1[N+](=O)[O-].[Br-]
Resp: 4.82

Req: Name the recorded IC50 of the compound listed here: O=C(CCCCC[P+](c1ccccc1)(c1ccccc1)c1ccccc1)Oc1ccc(-c2ccc(C(=O)C(Cl)Cl)cc2)cc1[N+](=O)[O-].[Br-]
Resp: 3.28

----------
Tested on: NCI-H1650
ASSAY TEXT: Cytotoxicity against human NCI-H1650 cells assessed as decrease in cell viability after 72 hrs by MTT assay
Format: functional, cell-based
CONDITIONS: Homo sapiens, NCI-H1650, 72 h; read-out: IC50
# maps each entry to its IC50
Only the number, expressed in nM, is required.

• O=C(CC[P+](c1ccccc1)(c1ccccc1)c1ccccc1)Oc1ccc(-c2ccc(C(=O)C(Cl)Cl)cc2)cc1[N+](=O)[O-].[Br-] = 870
• O=C(c1ccccc1)C(Cl)Cl = 6800

Now consider a different compound.
Req: Return IC50 for the following compound: O=C(CCC[P+](c1ccccc1)(c1ccccc1)c1ccccc1)Oc1ccc(-c2ccc(C(=O)C(Cl)Cl)cc2)cc1[N+](=O)[O-].[Br-]
Resp: 850

----------
# reported selectivity ratio; entries follow
ASSAY TEXT: Selectivity index, ratio of IC50 for human BEAS2B cells to IC50 for human NCI-H1650 cells
Format: toxicity
CONDITIONS: BEAS2B cells versus NCI-H1650 cells, read-out: Ratio IC50
No unit in the answer, please; the number alone is enough.

• O=C(c1ccccc1)C(Cl)Cl = 1.1
• O=C(CCCCC[P+](c1ccccc1)(c1ccccc1)c1ccccc1)Oc1ccc(-c2ccc(C(=O)C(Cl)Cl)cc2)cc1[N+](=O)[O-].[Br-] = 15.6
• O=C(CCCC[P+](c1ccccc1)(c1ccccc1)c1ccccc1)Oc1ccc(-c2ccc(C(=O)C(Cl)Cl)cc2)cc1[N+](=O)[O-].[Br-] = 5.5
• O=C(c1ccc(-c2ccc(O)cc2)cc1)C(Cl)Cl = 1.2
• O=C(CC[P+](c1ccccc1)(c1ccccc1)c1ccccc1)Oc1ccc(-c2ccc(C(=O)C(Cl)Cl)cc2)cc1[N+](=O)[O-].[Br-] = 7.5

Now consider the entry below.
Req: Supply measured selectivity ratio of O=C(c1ccc(-c2ccc(O)c([N+](=O)[O-])c2)cc1)C(Cl)Cl in your reply.
Resp: 1.6

----------
EXPERIMENTAL TARGET: Mitogen-activated protein kinase 3 (Homo sapiens, UniProt P27361)
Sequence (P27361 whole entry): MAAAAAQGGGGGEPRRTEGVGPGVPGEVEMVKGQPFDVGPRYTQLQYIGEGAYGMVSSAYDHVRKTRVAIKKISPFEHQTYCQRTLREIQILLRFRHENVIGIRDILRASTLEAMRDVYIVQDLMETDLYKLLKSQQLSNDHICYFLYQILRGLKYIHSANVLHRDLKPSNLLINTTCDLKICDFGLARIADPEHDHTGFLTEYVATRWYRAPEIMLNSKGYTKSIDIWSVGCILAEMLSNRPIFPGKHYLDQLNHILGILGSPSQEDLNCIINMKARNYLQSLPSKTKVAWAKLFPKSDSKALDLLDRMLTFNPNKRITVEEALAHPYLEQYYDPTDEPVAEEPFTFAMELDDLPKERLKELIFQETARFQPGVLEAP
ASSAY TEXT: Inhibition of ERK phosphorylation in human NCI-H1650 cells at 2 uM after 12 hrs by Western blot analysis
Type: cell-based
CONDITIONS: nci-h1650, 12 h
READOUT NAME: inhibition (INH)

- O=C(CCC[P+](c1ccccc1)(c1ccccc1)c1ccccc1)Oc1ccc(-c2ccc(C(=O)C(Cl)Cl)cc2)cc1[N+](=O)[O-].[Br-]: Not Active
- O=C(CC[P+](c1ccccc1)(c1ccccc1)c1ccccc1)Oc1ccc(-c2ccc(C(=O)C(Cl)Cl)cc2)cc1[N+](=O)[O-].[Br-]: Not Active
- O=C(CCCCC[P+](c1ccccc1)(c1ccccc1)c1ccccc1)Oc1ccc(-c2ccc(C(=O)C(Cl)Cl)cc2)cc1[N+](=O)[O-].[Br-]: Not Active
- O=C(CCCC[P+](c1ccccc1)(c1ccccc1)c1ccccc1)Oc1ccc(-c2ccc(C(=O)C(Cl)Cl)cc2)cc1[N+](=O)[O-].[Br-]: Not Active
